Experiment: Antiplatelet aggregation activity against adenosine diphosphate-induced human platelet rich plasma assessed as inhibition of platelet aggregation by turbidimetric method
Format: functional
Settings: Homo sapiens, Platelet, Plasma
Readings of pIC50 for the listed compounds
Please report pIC50 as the negative decimal logarithm of the molar concentration, giving only the number.

structure_smiles=CCCCCOC(=O)N1CCN(C(=O)[C@H](CCC(=O)O)NC(=O)c2cc(OCC3CCN(S(=O)(=O)CC)CC3)cc(-c3ccccc3)n2)CC1 numeric_value=5.55
structure_smiles=CCCCCCOC(=O)N1CCN(C(=O)[C@H](CCC(=O)O)NC(=O)c2cc(OCCO)cc(-c3ccccc3)n2)CC1 numeric_value=4.68
structure_smiles=CCCCCCOC(=O)N1CCN(C(=O)[C@H](CCC(=O)O)NC(=O)c2cccc(-c3ccccc3)n2)CC1 numeric_value=4.72

## Input State its pIC50: "CCCCOC(=O)N1CCN(C(=O)[C@H](CCC(=O)O)NC(=O)c2cc(OCC3CCN(C(C)C)CC3)cc(-c3ccccc3)n2)CC1"
## Output 6.39
